System: Puccinia recondita f. sp. tritici
Assay: Test A: wheat leaf rust, preventive spray on wheat seedlings, visual disease rating
Type: in vivo
Conditions: 250 ppm test suspension (*)
Marks after values point to notes of the source that are not given here.
Documented Test A disease control rating across a set of molecules
value-kind: Test A disease control rating

molecule=CCON=C(C)c1c(C)nn(C)c1N(CC)c1ccc(F)cc1Cl result="55* %"
molecule="Cn1nc(Br)c(C2OCCCO2)c1C(O)c1ccc(F)cc1F (stereo not shown)" result="0* %"
molecule="Cn1nc(Br)c(C2OCCCO2)c1C(O)c1ccc(F)cc1Br (stereo not shown)" result="0* %"
molecule=Cc1nn(C)c(Nc2ccc(F)cc2Cl)c1C1CCC(C)(C)CC1 result="68* %"
molecule=Cc1nn(C)c(Nc2ccc(F)cc2Cl)c1C1CCOCC1 result="55* %"
molecule=C=Cc1c(C)nn(C)c1Oc1ccc(F)cc1Cl result="8* %"
molecule="Cc1nn(C)c(Nc2ccc(F)cc2F)c1C1CCC(C#N)CC1 (stereo not shown)" result="86* %"
molecule=CCCON=C(C)c1c(C)nn(C)c1Nc1ccc(F)cc1Cl result="9* %"
molecule=Cc1nn(C)c(Oc2ccc(F)cc2Cl)c1C=NO result="9* %"
molecule="Cc1nn(C)c(C(O)c2ccc(F)cc2Cl)c1C1CCCCC1 (stereo not shown)" result="86* %"
